- EXPERIMENT_NOTES: Redox Reaction Profiling qHTS: Assay Interference Panel against the NCATS CANVASS Library (AID 1347401)
- TEST_CONTEXT: resazurin-DTT redox cycling, fluorescence, 15 min; series mostly up to 57.1 µM
Results filed as inconclusive are left out. Active and inactive are the calls of the source. Calls follow the shape of the dose curve; as a rule, active = well fitted activation curve with a large enough effect; inconclusive = small, poorly fitted or top-dose-only effect; inactive = no such curve, though single readings can be large or run the other way. Bridge positions count the residues as written; N and C are the ends. Square brackets hold non-standard residues; d marks the D form. Side chains are listed from the residue outwards. Peptide text beside a SMILES is read from it. * marks the point of attachment. ξ: configuration not given here. Phg(4-OMe) = COc1ccc([C@H](N)C(=O)O)cc1; d(aIle) = CC[C@H](C)[C@@H](N)C(=O)O; d(aThr) = C[C@@H](O)[C@@H](N)C(=O)O; NMeF = CN[C@@H](Cc1ccccc1)C(=O)O; Isobutyryl = CC(C)C(=O)*; ξL = CC(C)CC(N)C(=O)O
Outcomes: true = active, false = inactive

- COMPOUND: "COC(=O)[C@@]1(C)CCC[C@]2(C)c3cc(OC)ccc3CC[C@@H]12"
  ASSIGNED_CATEGORY: "false"
- COMPOUND: "C=C(Cl)[C@](Cl)(CBr)CC[C@@H](Br)C(C)(C)Cl"
  ASSIGNED_CATEGORY: "false"
- COMPOUND: "C=C1C(=O)O[C@H]2[C@H]1CCC(C)=C1CC[C@@](C)(O)[C@@H]12"
  ASSIGNED_CATEGORY: "false"
- COMPOUND: "O=C1CC(c2ccc(O)cc2)Oc2cc(O)ccc21 (stereo not drawn)"
  ASSIGNED_CATEGORY: "false"
- COMPOUND: "CN1CC[C@@]23c4ccccc4N[C@@H]1[C@@]21CCN(C)[C@@H]3Nc2ccccc21"
  ASSIGNED_CATEGORY: "false"
- COMPOUND: "COc1ccc([C@@H]2c3cc4c(cc3C(=O)[C@H](C)C2C)OCO4)cc1OC (stereo partly drawn)"
  ASSIGNED_CATEGORY: "false"
- COMPOUND: "COc1c(O)cc2c(c1O)C(=O)c1c(coc1C)C2=O"
  ASSIGNED_CATEGORY: "true"
- COMPOUND: "C/C=C/c1cc2c(c(=O)o1)C(=O)[C@@H](O)[C@H](C)O2"
  ASSIGNED_CATEGORY: "false"
- COMPOUND: "CN1CC[C@@]2([C@@]34CCN(C)[C@@H]3Nc3ccccc34)c3ccccc3N[C@@H]12"
  ASSIGNED_CATEGORY: "false"
- COMPOUND: "CO/C=C/C(=O)c1cc2cnc3c(N)cc(=NC(=O)C(C)C)c([nH]1)c23"
  ASSIGNED_CATEGORY: "false"
- COMPOUND: "O=C1CCC(=O)N(O)CCCCCNC(=O)CCC(=O)N(O)CCCCCNC(=O)CCC(=O)N(O)CCCCCN1"
  ASSIGNED_CATEGORY: "false"
- COMPOUND: "C[C@@]1(CCC(=O)Nc2c(O)ccc(C(=O)O)c2O)C(=O)C=C[C@]23C[C@H]4C[C@H](O[C@@]4(C)C2)C31 (stereo partly drawn)"
  ASSIGNED_CATEGORY: "false"
- COMPOUND: "CC[C@@H](C)[C@H]1NC(=O)C(CC(C)C)NC(=O)[C@@H](CC(C)C)NC(=O)[C@H](Cc2c[nH]c3ccccc23)NC(=O)CNC(=O)[C@@H](CC(N)=O)NC1=O (stereo partly drawn) (cyclo(GW[dL][ξL][dI][dN]))"
  ASSIGNED_CATEGORY: "false"
- COMPOUND: "CC[C@H](C)[C@H]1NC(=O)[C@@H](NC(=O)C(C)C)[C@@H](C)OC(=O)[C@H](COC(=O)CNC(C)=O)NC(=O)[C@@H]([C@@H](C)O)NC(=O)[C@H](Cc2ccccc2)N(C)C(=O)[C@H](c2ccc(OC)cc2)NC1=O (Isobutyryl-T[d(aIle)][Phg(4-OMe)][NMeF][d(aThr)]S([Gly-Ac]); ester 1-C)"
  ASSIGNED_CATEGORY: "false"
- COMPOUND: "C=C(C)CC[C@H](Cc1c(O)cc(O)c2c1O[C@H](c1ccc(O)cc1)CC2=O)C(=C)C"
  ASSIGNED_CATEGORY: "false"
- COMPOUND: "CC1=C[C@H]2[C@H]3C(=O)C(c4ccc(O)cc4)=C[C@@]3(c3ccc(O)cc3)[C@@H]1C(=O)[C@]2(C)O"
  ASSIGNED_CATEGORY: "false"
- COMPOUND: "CN1CC[C@]23c4ccccc4N[C@H]1[C@]21CCN(C)[C@H]3Nc2ccccc21"
  ASSIGNED_CATEGORY: "false"
- COMPOUND: "C/C1=C/[C@@H](C)[C@H](O)C/C=C/CC/C=C/C(=O)O[C@@H]1[C@H](C)C(=O)CCCC1CC(=O)NC(=O)C1"
  ASSIGNED_CATEGORY: "false"
- COMPOUND: "CC1=C2CC[C@]3(C)[C@H](CC=C4[C@@H]5CC(C)(C)CC[C@@H]5C(=O)[C@H](O)[C@]43C)[C@@]2(C)C=C(O)C1=O"
  ASSIGNED_CATEGORY: "false"
- COMPOUND: "C/C=C(/C)c1c(Cl)c(O)c(C)c2c1Oc1c(Cl)c(O)c(Cl)c(C)c1C(=O)O2"
  ASSIGNED_CATEGORY: "false"
- COMPOUND: "O[C@H]1C=C2[C@H]3CN(Cc4cc5c(cc43)OCO5)[C@H]2C[C@@H]1O"
  ASSIGNED_CATEGORY: "false"
- COMPOUND: "C[C@@H]1CC[C@]2(C(=O)O)CC[C@]3(C)C(=C2[C@H]1C)CC[C@@H]1[C@@]2(C)CC[C@H](O)C(C)(C)[C@@H]2CC[C@]13C"
  ASSIGNED_CATEGORY: "false"
- COMPOUND: "COc1c(O)cc(O)c2c(=O)cc(-c3ccccc3)oc12"
  ASSIGNED_CATEGORY: "false"
- COMPOUND: "CCCc1c2c([nH]c(=O)c1C)C(=O)c1[nH]c(=O)c(C)c(CCC)c1C2=O"
  ASSIGNED_CATEGORY: "true"
- COMPOUND: "COc1cc(O)c(C(=O)[C@@H]2[C@H](CC=C(C)C)C(C)=CC[C@H]2c2ccccc2)c(O)c1"
  ASSIGNED_CATEGORY: "false"
- COMPOUND: "C/C(=C\\[C@H](C)C(=O)C[C@H](O)CC1CC(=O)NC(=O)C1)[C@@H]1OC(=O)CCCC/C=C/C[C@@H](O)[C@@H]1C"
  ASSIGNED_CATEGORY: "false"
- COMPOUND: "C[C@]12CCC[C@](C)(C(=O)O)[C@@H]1CC[C@@]1(C)c3cocc3CC[C@H]21"
  ASSIGNED_CATEGORY: "false"
- COMPOUND: "C[C@]12CC[C@]3(C1)[C@H](CC2=O)C[C@@H](OC(=O)c1ccccc1)[C@H]1[C@](C)(C(=O)O)CCC[C@@]13C"
  ASSIGNED_CATEGORY: "false"
- COMPOUND: "COC1C(C)OC(OCC23C[C@@H]4[C@H](C)CC[C@H]4C4(C=O)CC2C=C(C(C)C)C34C(=O)O)[C@@H](O)[C@H]1O (stereo partly drawn)"
  ASSIGNED_CATEGORY: "false"
- COMPOUND: "C=C[C@@](C)(O)CC[C@@H]1[C@@]2(C)CCCC(C)(C)[C@@H]2CC[C@@]1(C)O"
  ASSIGNED_CATEGORY: "false"
- COMPOUND: "CN1CC[C@]2(c3cccc4c3N[C@H]3N(C)CC[C@@]43[C@]34CCN(C)[C@H]3Nc3ccccc34)c3ccccc3N[C@H]12"
  ASSIGNED_CATEGORY: "false"
- COMPOUND: "CCC(=O)N[C@@H](C[C@H](C)C(Cl)(Cl)Cl)C(=O)N1C(=O)C=C(OC)[C@@H]1CC(C)C"
  ASSIGNED_CATEGORY: "false"
- COMPOUND: "C=CC(CCCCC)C1C(=O)NC(=O)C1C(=O)C1C2C(C)CC(C(=O)O)CC2CC1(O)C(=O)/C=C/C (stereo not drawn)"
  ASSIGNED_CATEGORY: "false"
